test system: HS 578T breast; test: NCI-60 one-dose screen, 48 h (100 = growth as untreated, 0 = no growth, -100 = all killed); conditions: 10 µM unless noted
Compounds without any hit were thinned out: in the full panel of roughly 83,000, 20% have a hit.
# binarize growth: threshold 80% inclusive, high side Yes, low side No

See these solved cases before continuing.
INSERT INTO assay_data (test_smiles, discrete_label) VALUES
  ('CCN(CC)c1ccc2cc(C(=O)NCCOCCOCCOCCn3cc(CCC(=O)Nc4ccc(C(=O)c5ccc(NC(=O)OC(C)(C)C)cc5)cc4)nn3)c(=O)oc2c1', 'Yes'),
  ('N#Cc1c(-c2ccccc2)cc(-c2c[nH]c3ccccc23)nc1-c1c[nH]c2ccccc12', 'Yes'),
  ('CS(=O)(=O)c1nccc(-c2c(-c3ccc(F)c(OCCc4ccccc4)c3)nc3sccn23)n1', 'Yes'),
  ('CCc1ccc(NC(=O)N[C@@H](Cc2cccc(C)c2)C(=O)N[C@@H]2C(=O)N3CCC[C@H]3C(=O)N3CCCC[C@H]3C(=O)N[C@@H](CO)C(=O)N3C[C@H](C)C[C@H]3C(=O)O[C@H]2C)c(F)c1', 'No'),
  ('O=C(CCCCCCN1CC(=O)N2[C@@H](c3cccc(Br)c3)c3[nH]c4ccccc4c3C[C@H]2C1=O)NO', 'No');

Here is another compound to look at.
Hi, just wondering whether COC(=O)c1nc(-c2ccc(C)cc2)oc1S(=O)(=O)N1CCN(c2oc(-c3ccccc3)nc2C#N)CC1 shows growth of 80% or higher. Yes

* * *

system: HCT-15 colon; test: NCI-60 one-dose screen, 48 h (100 = growth as untreated, 0 = no growth, -100 = all killed); settings: 10 µM unless noted
The panel holds about 83,000 compounds, 20% with a hit somewhere; the sample as a whole holds those more often.
Please enter TRUE where growth is greater than or equal to 70%, and FALSE where it is lower.

INSERT INTO measurements (compound, discrete_label) VALUES
  ('C#CCOc1ccccc1C(Nc1ccccc1)c1nnnn1C1CCCCC1 (stereo not given)', 'TRUE'),
  ('CN1C(=O)/C(=C/C=C/c2ccco2)SC1=S', 'FALSE'),
  ('CCOC(=O)c1c(NC(=O)c2cccc(C(F)(F)F)c2)sc2c(CN3CCN(C)CC3)c(O)ccc12', 'FALSE');

Does the compound COc1ccccc1N1CCN(C2=NN=C(c3cccc(Cl)c3)c3ccccc3C2)CC1 have recorded growth that is 70% or more? FALSE

Hi team, for CC(C)SC1=NC(=C(C(=N1)NC2=ClC=CC=C2)C#N)C3=CC=CC=C3 , is the recorded growth at or above 70%? FALSE

# bool: growth of CC(c1ccccc1)N1C(=O)/C(=C/c2csc(C#N)n2)SC1=S (stereo not given) >= 70% TRUE

Please check the record CC(C)C(=O)Nc1ccc(-c2nc(-c3cccc(O)c3)c(-c3ccnc(Br)c3)[nH]2)cc1 and state if its growth is at or above 70%. FALSE

I'd appreciate it if you could say whether O=C(/C=C/Nc1ccc(S(=O)(=O)O)cc1)c1ccc(F)cc1 has growth at least equal to 70%. TRUE

State whether the measured growth reaches 70%, counting equality as reaching it, for Nc1cc(F)ccc1NC(=O)c1ccc(NC(=O)C/C=C/c2cccnc2)cn1 FALSE

Does the reported growth for CC(C)N=C(N/C(N)=N/c1nc2ccccc2s1)NC(C)C fall at or above the 70% mark? FALSE

Please tell me: is the compound CS(=O)(=O)c1nccc(-c2c(-c3ccc(F)c(OCCc4ccccc4)c3)nc3sccn23)n1 at or over 70% in terms of growth? TRUE

Could you verify whether the entry CC1=CC(=O)CC(C)(C)[C@@]1(O)/C=C/C(C)=C\C(=O)O shows growth of no less than 70%? FALSE

Record Fc1ccccc1/C=C(/C1=NCCN1)n1cnc2ccccc21 ; criterion: growth no lower than 70%. Met? TRUE

Please tell me: is the compound NCCN1CCN(c2nc(-c3ccccc3)nc3nc(-c4ccccc4)oc23)CC1 at or over 70% in terms of growth? FALSE

For this compound, is measured growth 70% or higher? CCC(C)[C@H]1OC(=O)[C@H](C(C)C)N(C)C(=O)[C@@H](C(C)C)OC(=O)[C@H](C(C)C)N(C)C(=O)[C@@H](C(C)CC)OC(=O)[C@H](C(C)C)N(C)C1=O (stereo not given in full) FALSE

* * *

system: CCRF-CEM leukemia; assay: NCI-60 one-dose screen, 48 h; conditions: 10 µM unless noted
Compounds without any hit were thinned out: in the full panel of roughly 83,000, 20% have a hit. Activity calls are given as the source filed them. Rule for the calls: active = growth percent below 10; inactive = the rest.
Valid outcomes are listed here; reply with one: yes = active, no = inactive

Worked set:
INSERT INTO assay_data (molecule, discrete_label) VALUES
  ('O=C1NC(=O)c2c1c1c3ccccc3ccc1c1[nH]c3ccccc3c21', 'yes'),
  ('O=C(CSc1nnc(-c2ccc(Cl)cc2)n1-c1ccccc1)Nc1ccc(F)cc1', 'no'),
  ('Cn1ccnc1C(=O)/C=C/c1ccc(C(=O)Nc2ccc(NC(=O)CCNC(=O)c3csc(Br)n3)cc2)cc1', 'no'),
  ('Cc1cc(O)c(=O)cc2c1C[C@H]1CC(C)(C)/C=C/C[C@]3(C)Oc4cc(=O)c(O)cc(C)c4C[C@H]3C[C@H](O)[C@@]1(C)O2', 'yes'),
  ('CC(=O)Oc1ccc(CCN2C(=O)CSC2=S)cc1', 'no');

Hi, sorry to bother you, what did the test record for C=C1C(=O)O[C@@H]2/C=C(/C)C3=CC(=O)[C@@](C)(C[C@H](OC(=O)/C(C)=C\C)[C@@H]12)O3 ? yes

* * *

tested on: SW-620 colon; experiment: NCI-60 one-dose screen, 48 h; conditions: 10 µM unless noted
Compounds without any hit were thinned out: in the full panel of roughly 83,000, 20% have a hit. The source made the active and inactive calls. Rule for the calls: active = growth percent below 10; inactive = the rest.
Reply using exactly one outcome from TRUE = active, FALSE = inactive

INSERT INTO results (molecule, discrete_label) VALUES
  ('COc1ccc2c(c1)oc1c3[nH]c4ccccc4c3c3c(c21)C(=O)N(O)C3=O', 'FALSE'),
  ('O=C(CCCCCCN1CC(=O)N2[C@@H](c3cc(F)cc(F)c3)c3[nH]c4ccccc4c3C[C@H]2C1=O)NO', 'FALSE'),
  ('COc1cc(CNC(=O)/C=C/c2ccccc2)ccc1OCC(=O)NO', 'FALSE'),
  ('CCNC(=O)Oc1ccc(/C(=C(/C)c2ccc(Cl)cc2)c2ccc(OCCN(C)C)cc2)cc1', 'FALSE');

Would you mind telling me which call this test gave COc1ccc(-c2nnc(/N=C3/C(=O)Nc4ccc(Br)cc43)o2)cc1 ? FALSE

Assay result, entry O=S(=O)(Nc1cc(Cl)cc(Cl)c1)c1ccc(-c2cnc(C3CC3)o2)cc1 — outcome? FALSE

Could you please tell me the result logged for O=S(=O)(Nc1ccc(-c2nc(-c3cccc(O)c3)c(-c3ccnc(Br)c3)[nH]2)cc1)c1ccccc1 in this assay? FALSE

GET /call?item= COc1ccc(Cn2cc3c(c2-c2ccccc2)CCCc2cnoc2-3)cc1[N+](=O)[O-] returns the recorded outcome of this test. FALSE

# outcome recorded in this test, key = COc1cc2c3c(n(CCCN4CCCCC4)c(=O)c2cc1OC)-c1cc2c(cc1C3=O)OCO2 TRUE

I'd appreciate the recorded outcome for CCOC(=O)CC(=O)CSC1=NC2C(NN1)N(C)C(=O)N2C (stereo unspecified) from this test. FALSE

I'd appreciate the recorded outcome for Brc1cccc(/C=N/Nc2nc(N/N=C/c3cccc(Br)c3)nc(N3CCOCC3)n2)c1 from this test. FALSE

Identify the outcome logged in this assay for the molecule shown: CCN1C(=O)N(CC)C2SC(N/N=C/c3cccs3)=NC21 (stereo unspecified) FALSE

GET /call?item= O=S(=O)(NCCCNc1nccc(-n2cnc3ccccc32)n1)c1ccc(F)cc1 returns the recorded outcome of this test. FALSE

How did this test come out for O=C(Nc1cccc(-c2nc(-c3ccc(NC(=O)c4cccnc4)cc3Cl)no2)c1)Nc1ccc(NC(=O)C2CC2)c(C(F)(F)F)c1 ? TRUE

Name the outcome recorded for CC(=O)NC(C)(C)C(=O)N1CCC[C@H]1C(=O)NC(C)(C)C(=O)N[C@@H](C)C(=O)NC(C)(C)C(=O)N[C@@H](C)C(=O)N[C@@H](CCC(N)=O)C(=O)NC(C)(C)C(=O)N[C@H](C(=O)NC(C)(C)C(=O)NCC(=O)N[C@@H](CC(C)C)C(=O)NC(C)(C)C(=O)N1CCC[C@H]1C(=O)N[C@H](C(=O)NC(C)(C)C(=O)NC(C)(C)C(=O)N[C@@H](CCC(N)=O)C(=O)N[C@@H](CCC(N)=O)C(=O)N[C@H](CO)Cc1ccccc1)C(C)C)C(C)C in the assay. FALSE

Short answer needed: outcome of this test for CC(=O)c1sc(Nc2cccc(Nc3nc(C)c(C)s3)c2)nc1C ? FALSE
